# Test system: MS2 coat protein
# assay: apparent Kd, MS2 coat protein; higher = weaker binding; RNA-MaP array; FMN 200 µM where present
# test.context: designed as: ON switch for flavin mononucleotide; no ligand

{"columns": ["primary.sequence", "apparent Kd (nM)"],
 "data": [
  ["UUCAAAUUCGUAGGAUAUGUAUAAAUUUUCUACAUGAGGAUCACCCAUGUUUCCAUUUUAAAUUGACAGAAGGACGUAAUCUAA", 30],
  ["GCCAUCGCAUGAGGAUAUGCUCCCGUUUCGGGAGCAGAAGGCAUGUAAUAAGACAUGAGGAUCACCCAUGUAGUUAAGAUGGCA", 7.36],
  ["UUGCCUGCGUGUCGCCGGUUUGGACAGGAUAUCCACAUGAGGAUCACCCAUGUCUAACAAAAUACGGAGAAGGGUCCUAGCGGU", 39],
  ["UCGAUUAUACAAGGAUAUCAAUUGUAAUUGAGACUUACAUGAGGAUCACCCAUGUUAAUAUUUUUUGAGAAGGUGUAUUUUCAG", 47.3],
  ["UUCAGGGAUCAAGGAUAUCUAUAUUCAUGAGGACAUGAGGAUCACCCAUGUUGAUUACCCAUGAGGGAGAAGGUGAACAUGAGG", 44.2],
  ["GGGUACAUCGGAGGAUAUCAUGUAUAGACAUGAGGAUCACCCAUGUCGUACGAGAGUACGGAGAUUGAGAAGGCCGAUGUACCG", 20.7],
  ["GGUCGUCACAUUUACAUGAGGAUCACCCAUGUCGAAAGACAUGAGGAUAUGCAUCCUAAUUGGAUGCAGAAGGCAUGGACGACC", 445],
  ["GCAUUGAUAACAGGAUAUAUGUUUCCUACAUGAGGAUCACCCAUGUAGGUGAUCAGCCGAGAAAAGUAGAAGGGUUAUCAAUGC", 16.7],
  ["GCGUUGAUGUAGAAGGUACAUGAAUAUAUUUAAUACCUCAAGUAACAUGAGGAUCACCCAUGUAGUAAGGAUAUACAUGAACGC", 88.6],
  ["CCAGAUAUGUAAGGAUAUAUAGUGGAAUACACUAUAGAAGGUAUGUGAGAACAUGAGGAUCACCCAUGUCAUUGGAUAUCUGGA", 37.1],
  ["AAAAGACAUGAGGAUCACCCAUGUGAAAACAUACAAGGAUAUGUGUGGAAACCGUACUAUACAGAAGGUGUAUGUC", 34.8],
  ["GUUUCUAUAUGUUUUAUUUAACAGUCAGAAGGUGAUACUACGACAUGAGGAUCACCCAUGUAAUUCAAGGAUAUGAACUUAAUC", 1060],
  ["GUAGCUAUCGGAGGAUAUUCAUACCGGAAACGGACAUGAGGAUCACCCAUGUGGCGAAAGCCAUGGGAGAAGGCCGAUAGCUAC", 606],
  ["GACAUACAUGAGGAUCACCCAUGUUCAGGCGGACAAGGAUAUGUGUGGAAACCAUACUAUACAGAAGGUGUCUGUC", 24.8],
  ["GUAUUUUUACAGAAGGUGUAUUACAUGAGGAUCACCCAUGUUUUAUGGAAUAAAGAUUUUAUUUACAAGGAUAUGUACUAUUUU", 31.7],
  ["GUAGCAUACGGAGGAUAUGUAGGAUCCACAUGAGGAUCACCCAUGUUAAGGACAGAAGGCCGUAUGCUACAAGAGCGAAAGCUC", 10.6],
  ["GUGGUCAGACAUGAGGAUCACCCAUGUGGAAUAAAUAACAGACAGGAUAUAUAAUAUAGGAUAUAGUAGAAGGGUCGAUUGGUG", 81.9],
  ["GUACUACAUGAGGAUCACCCAUGUACAAAGGUACGAGGAUAUGCAUGUACGAAAGUAUAUGCAGAAGGCGUAGUAC", 25.8],
  ["UCAUAUAUACAAGGAUAUCAAUGAUUUAUAGAUCCUACAUGAGGAUCACCCAUGUUUUUAUAUUUUGAGAAGGUGUAGUGUCUU", 214],
  ["GUAGAACAUGAGGAUCACCCAUGUGAAGACGCAUGAGGAUAUAUCCGUACCUAGCAUACGAUAGAAGGCAUGAUAC", 113],
  ["GGCUUGCAGCUAGGAUAUGGGCGAUCACAUGAGGAUCACCCAUGUCAACAUCAAAACAAGAUUAACCAGAAGGAGCCGCGGGUC", 21.3],
  ["GUGCCUUGGGAGAAGGCCCAAUGCAAAGCAUAGGGAGGAUAUCCAUAUAAUAAAUAAACAUGAGGAUCACCCAUGUGGCACAAA", 19.4],
  ["AUGGACGUCGUAGGAUAUGUAGGAUUCUCGUACAUGAGGAUCACCCAUGUUGACGUCGAGGACGGACAGAAGGGCGGUGUCCAU", 42.3],
  ["CUGGUUGUCGUAGGAUAUGUAGGAUAUUCCUACAUGAGGAUCACCCAUGUUCGCAUGGAAGAAGGACAGAAGGACGAUGACCAG", 621],
  ["AAAAAACAUGAGGAUCACCCAUGUCAAAAGACAUGAGGAUAUGUACAGACUUCGGUCUGUACAGAAGGCAUGAAAA", 489],
  ["CCGAUGGUAUACUAGGAUAUGGGCGCCCUUACAUGAGGAUCACCCAUGUUUACACAAAUCCGCGGCCAGAAGGAGUUCAUGGGAG", 184],
  ["GUAGGCGACCAGAAGGGUGACAUGAGGAUCACCCAUGUAGAUGUGUUCCCGCUUGGGAGCCGUCCACAGGAUAUGGUUGCUUAG", 66.5],
  ["AAAAAAAAAACGCAGGAUAUCCAAAAAAAAACAUGAGGAUCACCCAUGUAAAAAAAAAAAAAAUGGGAGAAGGGUGAAAAAAAAAA", 114]
]}
